The reported numbers originate from patent US20110319392A1.

target: EGFR (Homo sapiens, UniProt P00533)
Sequence (P00533 25-1210): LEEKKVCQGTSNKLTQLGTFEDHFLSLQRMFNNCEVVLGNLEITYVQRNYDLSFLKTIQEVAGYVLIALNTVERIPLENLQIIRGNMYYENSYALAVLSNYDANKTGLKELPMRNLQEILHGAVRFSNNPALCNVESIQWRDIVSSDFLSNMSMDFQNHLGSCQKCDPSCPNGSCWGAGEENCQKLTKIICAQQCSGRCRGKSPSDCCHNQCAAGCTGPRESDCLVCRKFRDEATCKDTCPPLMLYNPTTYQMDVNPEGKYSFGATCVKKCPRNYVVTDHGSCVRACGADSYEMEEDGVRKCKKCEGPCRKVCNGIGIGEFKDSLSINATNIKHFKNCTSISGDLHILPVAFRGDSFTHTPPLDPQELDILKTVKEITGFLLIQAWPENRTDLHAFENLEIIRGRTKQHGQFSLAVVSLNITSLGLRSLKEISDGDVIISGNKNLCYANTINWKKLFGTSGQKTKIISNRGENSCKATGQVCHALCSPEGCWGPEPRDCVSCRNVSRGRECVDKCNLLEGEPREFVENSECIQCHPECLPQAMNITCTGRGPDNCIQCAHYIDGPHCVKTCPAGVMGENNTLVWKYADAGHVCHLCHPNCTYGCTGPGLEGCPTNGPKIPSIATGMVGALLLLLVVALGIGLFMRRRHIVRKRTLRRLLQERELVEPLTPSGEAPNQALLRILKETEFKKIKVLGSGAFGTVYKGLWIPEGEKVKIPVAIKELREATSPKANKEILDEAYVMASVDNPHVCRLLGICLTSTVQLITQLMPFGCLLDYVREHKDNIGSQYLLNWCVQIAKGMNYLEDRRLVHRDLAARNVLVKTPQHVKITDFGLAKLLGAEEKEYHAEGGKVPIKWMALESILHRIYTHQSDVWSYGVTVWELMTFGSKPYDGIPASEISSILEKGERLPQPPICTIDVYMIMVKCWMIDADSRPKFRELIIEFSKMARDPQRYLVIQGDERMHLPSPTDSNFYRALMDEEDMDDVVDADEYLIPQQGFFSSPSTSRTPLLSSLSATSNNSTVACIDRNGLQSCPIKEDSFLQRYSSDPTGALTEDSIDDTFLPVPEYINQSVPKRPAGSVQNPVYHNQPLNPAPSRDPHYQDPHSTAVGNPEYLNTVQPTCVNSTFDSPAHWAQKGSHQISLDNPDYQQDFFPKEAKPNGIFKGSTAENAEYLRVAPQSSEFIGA
parameter: IC50

Check out these entries, answers already filled in.
- compound: "CC(C)c1nc(-c2cccc(NS(=O)(=O)c3c(F)cccc3F)c2)c(-c2ccnc(Nc3ccc(N4CCN5CCOC[C@H]5C4)nc3)n2)s1"
  IC50: "100 to 1000 nM"
- compound: "CCc1nc(-c2cccc(CNS(=O)(=O)c3ccccc3)c2)c(-c2ccnc(Nc3ccc(N4CCN(C(C)=O)CC4)nc3)n2)s1"
  IC50: "100 to 1000 nM"
- compound: "O=S(=O)(Nc1cccc(-c2nc(N3CCOCC3)sc2-c2ccnc(Nc3ccc(N4CCOCC4)nc3)n2)c1F)c1c(F)cccc1F"
  IC50: "100 to 1000 nM"
- compound: "CCc1nc(-c2cccc(CNS(=O)(=O)c3ccccc3)c2)c(-c2ccnc(Nc3ccc(N4CCOCC4)c(F)c3)n2)s1"
  IC50: "> 1000 nM"
- compound: "COc1cc(N2CCN(CCS(C)(=O)=O)CC2)c(C)cc1Nc1nccc(-c2sc(C(C)C)nc2-c2cccc(NS(=O)(=O)c3c(F)cccc3F)n2)n1"
  IC50: "< 100 nM"

Enquiry: # query: IC50 | item "CN1CCN(c2nc(-c3ccc(F)c(NS(=O)(=O)c4c(F)cccc4F)c3)c(-c3ccnc(Nc4ccc(N5CCOCC5)nc4)n3)s2)CC1" | system: EGFR (Homo sapiens, UniProt P00533)
Return: 100 to 1000 nM

Enquiry: Please do the same for "COc1cc(N2CCC(CCS(C)(=O)=O)CC2)c(C)cc1Nc1nccc(-c2sc(C(C)C)nc2-c2ccnc(NS(=O)(=O)c3c(F)cccc3F)c2)n1" as well.
Return: > 1000 nM

Enquiry: Next record, please: "O=S(=O)(Nc1cc(-c2nc(N3CCCC3)oc2-c2ccnc(Nc3ccc(N4CCN(CCF)CC4)c(F)c3)n2)ccc1F)c1c(F)cccc1F"
Return: > 1000 nM

Enquiry: Lookup "COc1cc2c(cc1Nc1nccc(-c3sc(C(C)C)nc3-c3cccc(NS(=O)(=O)c4c(F)cccc4F)c3)n1)N(C(=O)CN(C)C)CC2"
Return: 100 to 1000 nM
